Documented IC50 across a set of compounds
- Measured target: Des1 (h) (Homo sapiens)
- Construct: endogenous in cells; host or cells: parental Jurkat cells
- Experimental details: Measurement of Dihydroceramide Desaturase-1 (Des-1) activity in intact Jurkat cells labeled with DhCer-C6-NBD (HPLC)
- Type: cell-based
- Measurement parameters: intact Jurkat cells; given as concentration range, or <X / >X if measured at one concentration X only; read-out: Des1 (h) Jurkat IC50
Where a name gives a salt, the structure may show the parent alone.

[[record]]
compound = "O=C(NC[C@@H](O)CO)c1ccc(Nc2ncc(-c3ccc(C(F)(F)F)c(F)c3)o2)cn1 [Example 44]"
assay_result = "1 to 10 nM"

[[record]]
compound = "N/C(=N\\O)c1nnc(Nc2ncc(-c3ccc(C(F)(F)F)cc3)o2)cc1O [Example 42]"
assay_result = "1 to 10 nM"

[[record]]
compound = "N/C(=N/O)c1ccc(Nc2ncc(-c3ccc(F)cn3)o2)cn1 [Compound 117]"
assay_result = "> 1000 nM"

[[record]]
compound = "N/C(=N\\O)c1cnc(Nc2ncc(-c3ccc(C(F)(F)F)cn3)o2)cn1 [Example 57]"
assay_result = "< 1000 nM"

[[record]]
compound = "N/C(=N\\O)c1ncc(Nc2ncc(-c3ccc(C(F)(F)F)cn3)o2)cn1 [Example 58]"
assay_result = "> 1000 nM"

[[record]]
compound = "N/C(=N/O)c1ccc(Nc2cnn(-c3ccc(Cl)cn3)c2)cn1 [Compound 103]"
assay_result = "< 1000 nM"

[[record]]
compound = "N/C(=N\\O)c1ncc(Nc2ncc(-c3ccc(C(F)(F)F)cc3)o2)cn1 [Example 55]"
assay_result = "< 1000 nM"

[[record]]
compound = "N/C(=N\\O)c1cnc(Nc2nc(-c3ccc(C(F)(F)F)cc3)no2)cn1 [Example 83]"
assay_result = "< 1000 nM"


Given item O=C(NC[C@@H](O)CO)c1ccc(Nc2ncc(-c3ccc(C(F)(F)F)cc3)o2)cn1 [Example 36] , the value recorded as its IC50 is 1 to 10 nM

Given item Cn1nc(-c2ccc(C(F)(F)F)cc2)cc1Nc1ccc(/C(N)=N\O)nc1 [Example 77] , the value recorded as its IC50 is > 1000 nM

Given item O=CNNC(=O)c1ccc(Nc2ncc(-c3ccc(C(F)(F)F)cc3)o2)cn1 [Compound 93] , the value recorded as its IC50 is < 1000 nM

Given item N=C(NO)c1ccc(Nc2nnc(-c3ccc(C(F)(F)F)c(F)c3)o2)cn1 [Example 6] , the value recorded as its IC50 is 100 to 1000 nM

Given item N=C(NO)c1ccc(Nc2ncc(-c3ccc(F)c(F)c3)o2)nn1 [Example 48] , the value recorded as its IC50 is 1 to 10 nM

Given item O=C(NO)c1ccc(Nc2ncc(-c3ccc(C(F)(F)F)cc3)o2)nn1 [Example 11] , the value recorded as its IC50 is 100 to 1000 nM

Given item O=C(NCC(O)CO)c1ccc(Nc2ncc(-c3ccc(Cl)cn3)o2)cn1 (racemic) [Compound 116, hydrochloride] , the value recorded as its IC50 is < 1000 nM

Given item N/C(=N/O)c1ccc(Nc2ncc(-c3cnc(C(F)(F)F)cn3)o2)cn1 [Example 66] , the value recorded as its IC50 is > 1000 nM

###

- Measured target: Des1 (h) (Homo sapiens, UniProt O15121)
- Construct: endogenous in cells; host or cells: parental Jurkat cells
- Experimental details: Measurement of Dihydroceramide Desaturase-1 (Des-1) activity in intact Jurkat cells labeled with DhCer-C6-NBD (HPLC)
- Type: cell-based
- Measurement parameters: intact Jurkat cells; given as concentration range, or <X / >X if measured at one concentration X only; read-out: Des1 (h) Jurkat IC50
pIC50: −log10 of the molar value.
Documented pIC50 across a set of molecules

[[record]]
smiles_text = "N/C(=N\\O)c1ccc(Nc2ncc(-c3ccc(OC(F)(F)F)cc3)o2)cn1"
measurement_label = "pIC50"
assay_result = "> 6.00"

[[record]]
smiles_text = "N/C(=N\\O)c1ccc(Nc2nc(-c3ccc(C(F)(F)F)cc3)co2)cn1"
measurement_label = "pIC50"
assay_result = "> 6.00"

[[record]]
smiles_text = "N/C(=N\\O)c1ccc(Nc2nc(-c3ccc(C(F)(F)F)cc3)no2)cn1"
measurement_label = "pIC50"
assay_result = "> 6.00"

[[record]]
smiles_text = "N/C(=N\\O)c1ncc(Nc2ncc(-c3ccc(C(F)(F)F)c(F)c3)o2)cc1O"
measurement_label = "pIC50"
assay_result = "8.00 to 9.00"


Given item "N=C(NO)c1ccc(Nc2ncc(-c3ccc(F)cc3)o2)nn1" , the value recorded as its pIC50 is > 7.00

Given item "O=C(NO)c1ncc(Nc2nc(-c3ccc(C(F)(F)F)cc3)co2)cn1" , the value recorded as its pIC50 is 5.00 to 6.00

Given item "N/C(=N\O)c1ccc(Nc2nc(-c3ccc(Cl)cc3)no2)cn1" , the value recorded as its pIC50 is > 6.00

Given item "O=c1cc(Nc2ncc(-c3ccc(C(F)(F)F)cc3)o2)ccn1O" , the value recorded as its pIC50 is 8.00 to 9.00

Given item "O=C(NO)c1ccc(Nc2ncc(-c3ccc(Cl)cc3)o2)cn1" , the value recorded as its pIC50 is 6.00 to 7.00

###

Documented IC50 across a set of compounds
- Measured target: Des1 (h) (Homo sapiens)
- Construct: endogenous in cells; host or cells: parental Jurkat cells
- Experimental details: Measurement of Dihydroceramide Desaturase-1 (Des-1) activity in intact Jurkat cells labeled with DhCer-C6-NBD (HPLC)
- Type: cell-based
- Measurement parameters: intact Jurkat cells; given as concentration range, or <X / >X if measured at one concentration X only; read-out: Des1 (h) Jurkat IC50
Where a name gives a salt, the structure may show the parent alone.

Given item N/C(=N\O)c1ccc(Nc2ncc(-c3ccc(C(F)(F)F)cc3)o2)nc1 [Example 3, hydrochloride] , the value recorded as its IC50 is 100 to 1000 nM

Given item "Cl.N=C(NO)c1ccc(Nc2nnc(-c3ccc(C(F)(F)F)cn3)o2)cn1" , the value recorded as its IC50 is > 1000 nM

Given item "N/C(=N\O)c1cnc(Nc2ncc(-c3ccc(C(F)(F)F)cc3)o2)cn1" , the value recorded as its IC50 is 100 to 1000 nM

Given item "N/C(=N\O)c1ccc(Nc2nc(-c3ccc(OC(F)(F)F)cn3)no2)cn1" , the value recorded as its IC50 is > 1000 nM

###

- Measured target: Des1 (h) (Homo sapiens)
- Construct: endogenous in cells; host or cells: parental Jurkat cells
- Experimental details: Measurement of Dihydroceramide Desaturase-1 (Des-1) activity in intact Jurkat cells labeled with DhCer-C6-NBD (HPLC)
- Format: cell-based
- Measurement parameters: intact Jurkat cells; given as concentration range, or <X / >X if measured at one concentration X only; read-out: Des1 (h) Jurkat IC50
Documented IC50 across a set of compounds

Below, each entry is followed by its recorded IC50 result.
[[record]]
compound = "N/C(=N\\O)c1ccc(Nc2ncn(-c3ccc(C(F)(F)F)cc3)n2)cn1 [Example 24]"
measured_target = "Des1 (h) (Homo sapiens)"
assay_result = "10 to 100 nM"

[[record]]
compound = "Cc1cc(Nc2ncc(-c3ccc(C(F)(F)F)cc3)o2)cnc1C(=O)N(C)O [Example 21]"
measured_target = "Des1 (h) (Homo sapiens)"
assay_result = "> 1000 nM"

[[record]]
compound = "N/C(=N\\O)c1ccc(Nc2cnn(-c3ccc(C(F)(F)F)cc3)c2)cn1 [Compound 113]"
measured_target = "Des1 (h) (Homo sapiens)"
assay_result = "< 1000 nM"

[[record]]
compound = "N/C(=N\\O)c1ccc(Nc2ncc(-c3ccc(OC(F)F)cc3)o2)cn1 [Example 51]"
measured_target = "Des1 (h) (Homo sapiens)"
assay_result = "100 to 1000 nM"


# context switch: different compound, same IC50
Given item Oc1ccc(Nc2ncc(-c3ccc(C(F)(F)F)cc3)o2)nc1 [Example 18] , the value recorded as its IC50 is < 1000 nM

###

- Measured target: Des1 (h) (Homo sapiens, UniProt O15121)
- Construct: endogenous in cells; host or cells: parental Jurkat cells
- Sequence (O15121 1-323): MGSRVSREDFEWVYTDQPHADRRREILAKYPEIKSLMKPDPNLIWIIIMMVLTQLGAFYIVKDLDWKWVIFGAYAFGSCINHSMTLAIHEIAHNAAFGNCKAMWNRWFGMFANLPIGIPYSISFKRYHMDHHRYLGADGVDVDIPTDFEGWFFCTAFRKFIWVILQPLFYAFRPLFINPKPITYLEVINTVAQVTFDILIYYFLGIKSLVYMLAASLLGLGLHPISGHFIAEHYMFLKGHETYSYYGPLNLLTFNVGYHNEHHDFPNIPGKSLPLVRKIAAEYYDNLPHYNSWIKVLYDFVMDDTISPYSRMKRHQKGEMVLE
- Experimental details: Measurement of Dihydroceramide Desaturase-1 (Des-1) activity in intact Jurkat cells labeled with DhCer-C6-NBD (HPLC)
- Format: cell-based
- Measurement parameters: Table 3-1; comparison of W ring with and without nitrogen; read-out: Des1 IC50
pIC50: −log10 of the molar value.
Measurement label: pIC50

Below, each entry is followed by its recorded pIC50 result.
[[record]]
compound = "N=C(NO)c1ccc(Nc2ncc(-c3ccc(C(F)(F)F)cc3)o2)cc1"
measured_target = "Des1 (h) (Homo sapiens, UniProt O15121)"
assay_result = "6.00 to 6.10"

[[record]]
compound = "N/C(=N\\O)c1ccc(Nc2ncc(-c3ccc(C(F)(F)F)cc3)o2)nn1 [drawing 418]"
measured_target = "Des1 (h) (Homo sapiens, UniProt O15121)"
assay_result = "8.00 to 9.00"

[[record]]
compound = "N=C(NO)c1ccc(Nc2ncc(-c3ccc(C(F)(F)F)cc3)o2)cn1 [drawing 414]"
measured_target = "Des1 (h) (Homo sapiens, UniProt O15121)"
assay_result = "6.70 to 7.00"

[[record]]
compound = "O=C(NCC(O)CO)c1ccc(Nc2ncc(-c3ccc(C(F)(F)F)cc3)o2)cn1 (stereo not drawn)"
measured_target = "Des1 (h) (Homo sapiens, UniProt O15121)"
assay_result = "8.00 to 9.00"

[[record]]
compound = "N=C(NO)c1ccc(Nc2ncc(-c3ccc(C(F)(F)F)cn3)o2)cn1 [drawing 417]"
measured_target = "Des1 (h) (Homo sapiens, UniProt O15121)"
assay_result = "6.30 to 6.40"


# context switch: different compound, same pIC50
Given item N/C(=N\O)c1ccc(Nc2ncn(-c3ccc(C(F)(F)F)cc3)n2)cn1 [drawing 416] , the value recorded as its pIC50 is 7.10 to 7.15
